Just for reference, the supplement of paper PMC11061612 is where these values come from.

- Test system: NB10 (Neuroblastoma);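 also: after 72 h of two-drug dosing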
- Assay summary: Bliss excess, mean over the matrix (fraction); higher = more synergy
Listed next: entries and their corresponding Bliss excess.
No unit in the answer, please; the number alone is enough.

Some entries whose results are on file:
1. CN(CCO)CC[C@H](CSc1ccccc1)Nc1ccc(S(=O)(=O)NC(=O)c2ccc(N3CCC([C@@H](O)c4ccccc4-c4ccc(Cl)cc4)CC3)cc2)cc1S(=O)(=O)C(F)(F)F [AZD4320] + CS(=O)(=O)CCNCc1ccc(-c2ccc3ncnc(Nc4ccc(OCc5cccc(F)c5)c(Cl)c4)c3c2)o1 [Lapatinib] (first compound max 1 µM, 7x7, partner max 10 µM)	-0.0204
2. CC1(C)CCC(CN2CCN(c3ccc(C(=O)NS(=O)(=O)c4ccc(NCC5CCOCC5)c([N+](=O)[O-])c4)c(Oc4cnc5[nH]ccc5c4)c3)CC2)=C(c2ccc(Cl)cc2)C1 [Venetoclax] + CN(C)CCCOc1ccc(-c2ccc3ncc4c(c3c2)n(C2CCOCC2)c(=O)n4C)cn1 [AZD0156] (first compound max 1 µM, 7x7, partner max 1 µM)	0.0418

// next item, Bliss excess requested
Requested read-out: Bliss excess. Entry: CCc1c2c(nc3ccc(O)cc13)-c1cc3c(c(=O)n1C2)COC(=O)[C@]3(O)CC [SN-38] + CN(C)CCCOc1ccc(-c2ccc3ncc4c(c3c2)n(C2CCOCC2)c(=O)n4C)cn1 [AZD0156] (first compound max 0.3 µM, 7x7, partner max 1 µM)
-0.0533
